- target_or_system: human TLR9 (Homo sapiens)
- Construct: host or cells: HEK-Blue cells
- Sequence (Q9NR96 26-1032): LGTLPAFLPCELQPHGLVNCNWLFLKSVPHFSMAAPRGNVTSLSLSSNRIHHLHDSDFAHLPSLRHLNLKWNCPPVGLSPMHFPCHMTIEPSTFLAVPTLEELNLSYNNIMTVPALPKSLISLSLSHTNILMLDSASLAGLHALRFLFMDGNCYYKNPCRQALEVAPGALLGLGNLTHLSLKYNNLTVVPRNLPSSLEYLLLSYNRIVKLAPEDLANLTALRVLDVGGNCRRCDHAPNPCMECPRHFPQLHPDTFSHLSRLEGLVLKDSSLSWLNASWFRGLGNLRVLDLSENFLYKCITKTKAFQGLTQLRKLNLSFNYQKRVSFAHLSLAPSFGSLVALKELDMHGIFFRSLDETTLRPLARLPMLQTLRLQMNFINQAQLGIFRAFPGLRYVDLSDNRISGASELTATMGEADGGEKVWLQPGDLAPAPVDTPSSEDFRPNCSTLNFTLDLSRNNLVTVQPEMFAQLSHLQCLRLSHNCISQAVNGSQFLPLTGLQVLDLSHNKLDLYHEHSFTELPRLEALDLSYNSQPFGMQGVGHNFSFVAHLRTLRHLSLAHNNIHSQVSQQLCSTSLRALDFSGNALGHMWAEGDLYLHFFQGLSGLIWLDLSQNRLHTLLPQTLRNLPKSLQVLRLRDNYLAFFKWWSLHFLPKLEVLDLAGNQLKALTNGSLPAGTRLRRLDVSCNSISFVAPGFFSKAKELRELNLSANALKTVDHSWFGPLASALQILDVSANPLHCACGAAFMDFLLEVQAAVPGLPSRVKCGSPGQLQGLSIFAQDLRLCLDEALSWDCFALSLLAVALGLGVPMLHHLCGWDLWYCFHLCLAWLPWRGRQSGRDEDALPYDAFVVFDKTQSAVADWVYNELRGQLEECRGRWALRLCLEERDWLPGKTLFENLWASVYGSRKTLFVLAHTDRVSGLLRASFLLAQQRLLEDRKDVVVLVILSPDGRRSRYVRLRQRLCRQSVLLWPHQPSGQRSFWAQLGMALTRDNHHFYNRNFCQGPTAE
- assay_comment: TLR9 inhibition reporter assay (HEK-Blue cells, SEAP reporter, ODN2006 stimulation)
- Format: cell-based
- conditions_used: HEK-Blue cells overexpressing human TLR9, ODN2006 5 nM
Where a name gives a salt, the structure may show the parent alone.
Listing of recorded pIC50 by entry.
# reply with the number alone; pIC50 is -log10 of concentration in mol/L

COc1ccc(-c2[nH]c3ccc(C4CCN(C(=O)CN5CCC(N(C)C)CC5)CC4)cc3c2C(C)C)cc1OC
6.42
COc1ccc(-c2[nH]c3ccc(C4CCN(CC(=O)NCCN5CCCC5)CC4)cc3c2CC(F)(F)F)cc1OC
6.15
COc1ccc(-c2[nH]c3ccc(C4CCN(C5CCNCC5)CC4)cc3c2C(C)C)cc1OC [Example 197, dihydrochloride]
6.19
CNCC(=O)N1CCC(c2ccc3[nH]c(-c4ccc(OC)c(OC)c4)c(C(C)C)c3c2)CC1
5.63

Next molecule, please.
Kindly note the recorded pIC50 for COc1ccc(-c2[nH]c3ccc(C4CCN(C(=O)CNC5CCCC5O)CC4)cc3c2C(C)C)cc1OC (stereo not shown) , which is 5.86
